target: SARS‐CoV‐2 M^pro (Severe acute respiratory syndrome coronavirus 2, UniProt P0DTD1); assay: Determination of IC50 and K i values; assay type: biochemical
quantity kind: IC50 (µM)
Report as a plain number; the unit µM is understood.

Give the reported IC50 for CN(NC(=O)[C@H](Cc1ccccc1)NC(=O)OCc1ccccc1)S(=O)(=O)F [Compound 11] (system: SARS‐CoV‐2 M^pro (Severe acute respiratory syndrome coronavirus 2, UniProt P0DTD1)). 14.7

====

target: SARS‐CoV‐2 M^pro (Severe acute respiratory syndrome coronavirus 2); experiment: Screening of M^pro inhibition at 10 and 50 µM (fluorogenic substrate Boc‐Abu‐Tle‐Leu‐Gln‐AMC); format: biochemical; conditions: screened at 10 and 50 µM
quantity kind: M^pro inhibition (in words)

- compound: "COC(=O)/C=C/N(C)NC(=O)[C@H](Cc1ccccc1)NC(=O)OCc1ccccc1 [Compound 1]"
  reported value: "inactive"
- compound: "COC(=O)/C=C(\\C(=O)OC)N(C)NC(=O)[C@H](Cc1ccccc1)NC(=O)OCc1ccccc1 [Compound 2]"
  reported value: "inactive"
- compound: "COC(=O)CC(=O)N(C)NC(=O)[C@H](Cc1ccccc1)NC(=O)OCc1ccccc1 [Compound 4]"
  reported value: "inactive"
